All figures here come from patent US8017612B2.

Kindly supply the reported pIC50 values for the records listed here.
molecular target: HCV polymerase (NS5B) type 1a (Hepatitis C virus genotype 1a); construct: made in house; host or cells: Escherichia coli (by the 'similar method' of the 1b enzyme); assay: Assay of enzyme (HCV polymerase) inhibitory activity, type 1a enzyme; type: biochemical, HCV type 1a (cloned from the blood of patients); details: HCV polymerase inhibitory activity (IC50), 1a, type 1a enzyme 1.5 μg/ml, 25° C., 60 min
pIC50: −log10 of the molar value. Where a name gives a salt, the structure may show the parent alone.

Observe how each entry below is paired with its result.
INSERT INTO results (molecule, parameter, observed_value) VALUES
  ('CC(=O)Nc1ccc(S(=O)(=O)N2CCN(C(C)=O)CC2C(=O)NCc2ccc(C(F)(F)F)cc2)cc1 (centres unmarked)', 'pIC50', '< 6.00'),
  ('CC(=O)N1CCN(S(=O)(=O)c2ccc(C(C)C)cc2)C(C(=O)NCc2ccc(Cl)c(Cl)c2)C1 (centres unmarked)', 'pIC50', '< 6.00'),
  ('CC(C)c1ccc(S(=O)(=O)N2CCN(C=O)CC2C(=O)NCc2ccc(C(F)(F)F)cc2)cc1 (centres unmarked)', 'pIC50', '< 6.00'),
  ('CC(=O)N1CCN(S(=O)(=O)c2ccc3c(c2)CCO3)C(C(=O)NCc2ccc(C(F)(F)F)cc2)C1 (centres unmarked)', 'pIC50', '< 6.00'),
  ('CC(C)c1ccc(CNC(=O)[C@H]2CN(C(=O)CCN)CCN2S(=O)(=O)c2ccc(C(F)(F)F)cc2)cc1 [Example 189, hydrochloride]', 'pIC50', '< 6.00'),
  ('CCCc1ccc(CNC(=O)[C@H]2CN(c3cnc(C(=O)O)cn3)CCN2S(=O)(=O)c2ccc(CCC)cc2)cc1', 'pIC50', '> 7.00'),
  ('CCC(F)(F)c1ccc(CNC(=O)[C@H]2CN(C(=O)Nc3nnc(C(C)(C)O)s3)CCN2S(=O)(=O)c2ccc(OC(F)(F)F)cc2)cc1', 'pIC50', '6.00 to 7.00'),
  ('CC(C)c1ccc(CNC(=O)[C@H]2CN(c3ccc(C(=O)OC(C)(C)C)cn3)CCN2S(=O)(=O)c2ccc(C(F)(F)F)cc2)cc1', 'pIC50', '6.00 to 7.00');

// for each molecule below, give its pIC50
1. CC(=O)N1CCN(S(=O)(=O)c2ccc(C(C)C)cc2)C(C(=O)NCc2cccc(F)c2)C1 (centres unmarked)
2. CCC(F)(F)c1ccc(CNC(=O)[C@H]2CN(c3nccc(N)n3)CCN2S(=O)(=O)c2ccc(OC(F)(F)F)cc2)cc1

< 6.00
6.00 to 7.00

# return pIC50 for each item in the list
1. COc1ccccc1CNC(=O)C1CN(C(C)=O)CCN1S(=O)(=O)c1ccc(C(C)C)cc1 (centres unmarked)
2. CCCc1ccc(CNC(=O)[C@H]2CN(C(=O)Cn3ccnc3)CCN2S(=O)(=O)c2ccc(OC(F)(F)F)cc2)cc1
3. CC(=O)N1CCN(S(=O)(=O)c2ccc(OC(F)(F)F)cc2)[C@@H](C(=O)NCc2ccc(C(C)C)cc2)C1
4. CCCc1ccc(S(=O)(=O)N2CCN(c3nc(C)c(C(=O)O)s3)C[C@@H]2C(=O)NCc2ccc(C(C)C)cc2C)cc1

["< 6.00", "> 7.00", "> 7.00", "> 7.00"]
